test_system: alpha-thrombin (Homo sapiens, UniProt P00734;P00734 P00734:328-363,P00734:364-622)
experiment_description: FP; 140 mM NaCl, 20 mM Tris acetate, 1 mM CaCl2, 5 mM KCl, 1 mM MgCl2, pH 7.4, room temperature; delta mP +80
measurement_label: Kd (nM)
Numbers only, in nM.

Request the reported Kd associated with GGTTGGTGTGGTTGG (ssDNA) [Compound 3]
5.7
